The measured values listed here are drawn from ChEMBL document CHEMBL2401698.

Each item that follows carries a reported inhibition.
# Target entity: Adenosine receptor A1 (Homo sapiens)
# Sequence (whole entry): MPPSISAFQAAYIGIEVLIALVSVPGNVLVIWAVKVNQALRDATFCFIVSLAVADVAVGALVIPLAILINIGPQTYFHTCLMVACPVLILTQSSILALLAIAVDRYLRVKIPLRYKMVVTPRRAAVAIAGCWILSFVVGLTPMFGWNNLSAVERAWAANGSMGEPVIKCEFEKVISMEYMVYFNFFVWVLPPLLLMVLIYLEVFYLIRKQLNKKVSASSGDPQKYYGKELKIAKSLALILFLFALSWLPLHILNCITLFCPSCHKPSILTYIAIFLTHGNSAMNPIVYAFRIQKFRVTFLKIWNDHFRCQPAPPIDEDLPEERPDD
# Method: Displacement of [3H]N6-R-phenylisopropyladenosine from human adenosine A1 receptor expressed in CHO cell membranes at 10 uM after 60 mins by liquid scintillation counting analysis relative to control
Value kind: inhibition (%)

# Smiles record, Experimental result
data = [
    ("O=S(=O)(O)c1ccc(CCNc2nc(C#Cc3ccccc3)nc3c2ncn3[C@H]2[C@H](O)[C@H](O)[C@@H]3C[C@@H]32)cc1", 10),
    ("CNC(=O)[C@@]12C[C@@H]1[C@@H](n1cnc3c(NCc4cccc(Cl)c4)nc(C#Cc4cccc(S(=O)(=O)O)c4)nc31)[C@H](O)[C@@H]2O", 16),
    ("CNC(=O)[C@@]12C[C@@H]1[C@@H](n1cnc3c(NCCc4ccc(S(=O)(=O)O)cc4)nc(C#Cc4ccccc4)nc31)[C@H](O)[C@@H]2O", 9),
    ("CNC(=O)[C@@]12C[C@@H]1[C@@H](n1cnc3c(NCCc4ccccc4)nc(C#Cc4ccccc4)nc31)[C@H](O)[C@@H]2O", 11),
]

----------
Each item that follows carries a reported inhibition.
# Target entity: Adenosine receptor A2a (Mus musculus) (UniProt Q60613)
# Sequence (Q60613 whole entry): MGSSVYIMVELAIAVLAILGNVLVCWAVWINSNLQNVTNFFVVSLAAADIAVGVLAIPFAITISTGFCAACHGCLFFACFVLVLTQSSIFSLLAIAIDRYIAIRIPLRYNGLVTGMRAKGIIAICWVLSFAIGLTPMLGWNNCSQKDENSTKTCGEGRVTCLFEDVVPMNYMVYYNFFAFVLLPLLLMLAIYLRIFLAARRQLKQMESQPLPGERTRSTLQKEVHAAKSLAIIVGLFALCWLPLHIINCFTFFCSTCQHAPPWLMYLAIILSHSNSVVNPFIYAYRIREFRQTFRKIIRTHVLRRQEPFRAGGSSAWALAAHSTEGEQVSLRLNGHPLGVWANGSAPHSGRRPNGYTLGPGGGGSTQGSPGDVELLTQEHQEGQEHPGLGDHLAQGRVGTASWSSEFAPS
# Method: Displacement of [3H]2-[p-(2-carboxyethyl)phenylethylamino]-5'-N-ethylcarboxamidoadenosine from mouse adenosine A2A receptor expressed in HEK293 cell membranes at 10 uM after 60 mins by liquid scintillation counting analysis relative to control

# Smiles record, inhibition [%]
measured = [
    ("CCNc1nc(C#Cc2ccccc2Cl)nc2c1ncn2[C@H]1[C@H](O)[C@H](O)[C@@H]2C[C@@H]21", 11),
    ("CNC(=O)[C@@]12C[C@@H]1[C@@H](n1cnc3c(NCc4cccc(Cl)c4)nc(C#Cc4cccc(S(=O)(=O)O)c4)nc31)[C@H](O)[C@@H]2O", 1),
    ("O=S(=O)(O)c1ccc(CCNc2nc(C#Cc3ccccc3)nc3c2ncn3[C@H]2[C@H](O)[C@H](O)[C@@H]3C[C@@H]32)cc1", 1),
    ("CNC(=O)[C@@]12C[C@@H]1[C@@H](n1cnc3c(NCCc4ccccc4)nc(C#Cc4ccccc4)nc31)[C@H](O)[C@@H]2O", 1),
    ("CNC(=O)[C@@]12C[C@@H]1[C@@H](n1cnc3c(NCc4cccc(Cl)c4)nc(C#Cc4ccc(S(=O)(=O)O)cc4)nc31)[C@H](O)[C@@H]2O", 14),
    ("O[C@@H]1[C@H](O)[C@@H]2C[C@@H]2[C@H]1n1cnc2c(NCC(c3ccccc3)c3ccccc3)nc(C#Cc3ccccc3Cl)nc21", 16),
    ("CNc1nc(C#Cc2ccccc2)nc2c1ncn2[C@H]1[C@H](O)[C@H](O)[C@@H]2C[C@@H]21", 8),
]
